test system: L1210 leukemia ip in BDF1 mice, survival T/C; assay: NCI In Vivo Anticancer Drug Screen. Data for tumor model L1210 Leukemia (intraperitoneal) in B6D2F1 (BDF1) mice; conditions: endpoint: mean survival time; dose: 50.0 mg/kg/injection; schedule: Q04DX003 (ip); vehicle: saline with Tween-80
Toxic doses and inconclusive results are not listed. No stated cut-off is given here; in the data, active means T/C of 150% or more; inactive means T/C below 125%.
Respond only with the outcome that fits, drawn from 1 for active, 0 for inactive

compound=O=C1CSc2ccccc2N1 answer_label=0

Which result was noted for this compound in the test: O=C1c2ccccc2C(=O)N1CC(O)CCl (stereo unspecified)
0

Tell me the recorded outcome of this test for `COc1ccc(C(=O)CCN2CCC(O)(c3ccccc3)CC2)cc1` .
0

Can you look up the reported call for `COc1cc([N+](=O)[O-])ccc1S(=O)(=O)Cl` for me?
0

Which outcome was entered for the compound `CCCCC(=O)N(c1ccc(Nc2c3ccccc3nc3cc([N+](=O)[O-])ccc23)cc1)S(C)(=O)=O` in this test?
1

Could you check what this test reported for `NC(=S)N=Nc1c(O)[nH]c(=O)[nH]c1=O` ?
0

Identify the outcome logged in this assay for the compound shown: `CCC1(CC)C(=O)C=CNC1=O`
0

Field: outcome | Entry: `COC(=O)Nc1cccc(NC(=O)C(=O)O)c1`
0

###

test system: L1210 leukemia ip in BDF1 mice, survival T/C; assay: NCI In Vivo Anticancer Drug Screen. Data for tumor model L1210 Leukemia (intraperitoneal) in B6D2F1 (BDF1) mice; conditions: endpoint: mean survival time; dose: 400.0 mg/kg/injection; schedule: Q01DX009 (ip); vehicle: other; higher = longer survival
Toxic doses and inconclusive results are not listed.
measured-property: T/C

Worked examples follow.
compound=CC(C)(C)c1ccc(OC(=O)NCCCCCCNC(=O)Oc2ccc(C(C)(C)C)cc2)cc1 meas_value="87 % of control"
compound="COc1ccc(N2C(=O)CC(Sc3ccccc3N)C2=O)cc1 (centres undefined)" meas_value="91 % of control"
compound=Cc1ccc2cccc3c(=O)c4cccc5cccc(sc1c23)c54 meas_value="92 % of control"

Return T/C (reported value) for this compound: O=C(NC/C=C/Br)NC1CCCc2ccccc21 (centres undefined)
100 % of control

###

system: L1210 leukemia ip in BDF1 mice, survival T/C; assay: NCI In Vivo Anticancer Drug Screen. Data for tumor model L1210 Leukemia (intraperitoneal) in B6D2F1 (BDF1) mice; settings: endpoint: mean survival time; dose: 400.0 mg/kg/injection; schedule: Q04DX003 (ip); vehicle: saline; higher = longer survival
Toxic doses and inconclusive results are not listed.
Record form. Attribute: T/C. Fill in for each entry.

Record excerpt, results attached:
molecule=CC(=O)NCCN(C)C target_or_test_system="L1210 leukemia ip in BDF1 mice, survival T/C" measured_property=T/C meas_value="97 % of control"
molecule=c1ccncc1 target_or_test_system="L1210 leukemia ip in BDF1 mice, survival T/C" measured_property=T/C meas_value="91 % of control"
molecule=CCC[CH2][Sn]([CH2]C)([CH2]CCC)[CH2]CCC target_or_test_system="L1210 leukemia ip in BDF1 mice, survival T/C" measured_property=T/C meas_value="95 % of control"

Fill in T/C for each of the 5 molecules listed.
1. c1c[nH]cn1
2. Cc1ccc(C(=O)O)cn1
3. COc1ccccc1OC(=O)Nc1ccc(S(=O)(=O)N(C)C)cc1
4. Oc1ccc2ccccc2c1CN1CCCCC1
5. O=C(O)C1CC2C=CC1C2 (centres undefined)

1. 94 % of control
2. 105 % of control
3. 97 % of control
4. 106 % of control
5. 105 % of control

Give measured T/C for every item shown.
1. O=C(Nc1ccc(F)cc1)c1ccc(Cl)cc1Cl
2. CC(CO)(CO)[N+](=O)[O-]

["100 % of control", "93 % of control"]

Batch request: T/C per item, same order as input.
1. COc1ccc(NC(=O)c2ccc(C(=O)Nc3ccc(OC)cc3)cc2)cc1
2. O=C1OC(=O)C2CCC12 (centres undefined)
3. CNCc1nc2ccccc2c(C)[n+]1[O-]
4. CCOC(=O)C1C2c3ccccc3C(C1C(=O)OCC)[n+]1ccccc12 (centres undefined)

["92 % of control", "98 % of control", "95 % of control", "100 % of control"]
